Exercise: for every item that follows, state its recorded protein stability index.
B1: FAM189A2 (parent)
chain: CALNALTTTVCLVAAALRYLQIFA

variants of: B1; experiment: protein stability index of a GFP-peptide fusion (GPS, HEK-293T) (PSI 1-6); higher = more stable; conditions: c terminus: a fixed tail appended;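 also: lentivirally expressed fusions sorted by FACS into six bins by GFP to DsRed ratio, PSI derived from sequencing read proportions per bin multiplied by bin number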
API note: the answer field is a bare number with no unit suffix.

Problem: Read off the recorded protein stability index for CALNALTTTSCLVAAALRYLQIFA [V10S]
Solution: 4.12

Problem: State its protein stability index: CALNALTTTVCLVAAALNYLQIFA [R18N]
Solution: 3.9

Problem: # return recorded protein stability index for entry CALNALNTTVCLVAAALRYLQIFA [T7N]
Solution: 3.42

Problem: Look up protein stability index of CALNALTTTVCLVAAALRYLWIFA [Q21W] and report it.
Solution: 2.74

Problem: Read the entry CALNALWTTVCLVAAALRYLQIFA [T7W] and write its reported protein stability index.
Solution: 2.89

Problem: Please give the documented protein stability index of CALNALTTTVCLVAAALRYLCIFA [Q21C]
Solution: 2.75

Problem: Note down protein stability index recorded for CALNALTTTVCLVAADLRYLQIFA [A16D]
Solution: 3.52

Problem: Report measured protein stability index; entry is QALNALTTTVCLVAAALRYLQIFA [C1Q]
Solution: 3.13

Problem: For the variant CALNALTTTVCAVAAALRYLQIFA [L12A] , give its measured protein stability index value.
Solution: 3.5

Problem: In one line, give reported protein stability index of the entry CALNALTTTVCLVAAALRYLQHFA [I22H] .
Solution: 2.75

Problem: Return value of protein stability index for input TALNALTTTVCLVAAALRYLQIFA [C1T] , no commentary.
Solution: 3.21

Problem: Specify measured protein stability index for CALNALTTTVCLVAAALRYLQFFA [I22F] .
Solution: 2.44

Problem: Please indicate protein stability index recorded for CALNALTTTVCLVGAALRYLQIFA [A14G]
Solution: 2.74

Problem: In one line, give reported protein stability index of the entry CALNALTTTVCLVAAALRYLTIFA [Q21T] .
Solution: 3.12

Problem: Recall and state the measured protein stability index for CALNALTTTVCLVAAALRYLQQFA [I22Q] .
Solution: 2.9

Problem: Provide only the value of recorded protein stability index for CILNALTTTVCLVAAALRYLQIFA [A2I]
Solution: 2.77

Problem: Quickly give me recorded protein stability index for CALNALTTVVCLVAAALRYLQIFA [T9V]
Solution: 3.39

Problem: State, in one line, measured protein stability index of CALNALTTTVCLVAAALDYLQIFA [R18D]
Solution: 3.02

Problem: # return recorded protein stability index for input CALNSLTTTVCLVAAALRYLQIFA [A5S]
Solution: 3.5

Problem: Provide only the value of recorded protein stability index for CNLNALTTTVCLVAAALRYLQIFA [A2N]
Solution: 3.43

Problem: Report measured protein stability index; entry is CALNALTTGVCLVAAALRYLQIFA [T9G]
Solution: 4.16

Problem: Return the recorded protein stability index value; entry: CALNALTTTVCLVAAALYYLQIFA [R18Y]
Solution: 3.89

Problem: Identify measured protein stability index corresponding to NALNALTTTVCLVAAALRYLQIFA [C1N]
Solution: 3.61

Problem: Note down protein stability index recorded for CALNALTTTVCLVTAALRYLQIFA [A14T]
Solution: 3.07

Problem: Output protein stability index of CALNATTTTVCLVAAALRYLQIFA [L6T]
Solution: 2.87

Problem: // Input: CALNALTTTCCLVAAALRYLQIFA [V10C] . Output its protein stability index only.
Solution: 1.42

Problem: Write down protein stability index measured for item CALNAFTTTVCLVAAALRYLQIFA [L6F]
Solution: 1.13

Problem: Hello, please tell me recorded protein stability index for this one: CALNALTTTVCLVAAALRYLQIRA [F23R]
Solution: 3.81

Problem: Consider the variant CALNALTTTVCLVAVALRYLQIFA [A15V] . State its measured protein stability index.
Solution: 3.64

Problem: Return protein stability index for the following variant: CGLNALTTTVCLVAAALRYLQIFA [A2G]
Solution: 3.74

Problem: Specify reported protein stability index for the variant shown: CALNALTTTVCLVAAALRYLQIFV [A24V]
Solution: 3.43

Problem: Entry CALNALTTTVCLVAAILRYLQIFA [A16I] needs its protein stability index filled in; supply it.
Solution: 4.22

Problem: Give me measured protein stability index, please, for this variant: CALNALTTTVCLVAAALRELQIFA [Y19E]
Solution: 3.73

Problem: State its protein stability index for this variant: CALNALTTTVCKVAAALRYLQIFA [L12K]
Solution: 2.3

Problem: Report measured protein stability index; entry is CALNALTTTVCLVAAALRYLQIKA [F23K]
Solution: 2.94

Problem: State, in one line, measured protein stability index of CALNALTTTVCLTAAALRYLQIFA [V13T]
Solution: 3

Problem: For CALNALTTTVCLVAAALRYLAIFA [Q21A] , write its protein stability index.
Solution: 3.09

Problem: // Input: CALNALTTTVCLVAAALRYLQRFA [I22R] . Output its protein stability index only.
Solution: 2.16

Problem: Identify measured protein stability index associated with CALNALTTTVCLVAAALKYLQIFA [R18K]
Solution: 3.85

Problem: Item CALRALTTTVCLVAAALRYLQIFA [N4R] : provide protein stability index
Solution: 3.01

Problem: Supply measured protein stability index of CALNALTTTVCLIAAALRYLQIFA [V13I] in your reply.
Solution: 2.9

Problem: Supply reported protein stability index belonging to this variant: CALNALTTTVCLVAAALRYLQIPA [F23P]
Solution: 3.42

Problem: Tell me protein stability index reported for CALNALTTTVRLVAAALRYLQIFA [C11R]
Solution: 3.69

Problem: Look up and report measured protein stability index for this entry: CALNALTETVCLVAAALRYLQIFA [T8E]
Solution: 4.29

Problem: // fetch protein stability index given entry CALNALTTTVCLVAAELRYLQIFA [A16E]
Solution: 3.27

Problem: Give a short answer stating reported protein stability index for CALNALTTTVCLVHAALRYLQIFA [A14H] .
Solution: 4.41
